Species: Rattus norvegicus
Assay: Open TG-GATES - Regimen: Single
Format: toxicity, organism-based, Sprague-Dawley
Parameters: regimen Single, gender Male, age 6 weeks
Settings: in vivo, po, 0 mg/kg, 9 h, tissue Kidney, route gavage, dose level Control
QUANTITY: KIDNEY_R (g)
Number in g, nothing else.

Value lookup for KIDNEY_R; key = CCOC(=O)C(C)(C)Oc1ccc(Cl)cc1 [CLOFIBRATE]
1

====

Species: Rattus norvegicus
Experiment: Open TG-GATES - Regimen: Daily Repeat
Type: toxicity, organism-based, Sprague-Dawley
Parameters: regimen Daily Repeat, gender Male, age 6 weeks
Details: in vivo, po, 0 mg/kg, […], tissue Plasma, route gavage, dose level Control, time 28 day
QUANTITY: PL (mg/dL)
Enter your answer as a number in mg/dL; do not include the unit.

INSERT INTO results (compound, quantity, unit_spec, number) VALUES
  ('C=C(C)[C@H]1Cc2c(ccc3c2O[C@@H]2COc4cc(OC)c(OC)cc4[C@@H]2C3=O)O1', 'PL', 'mg/dL', 134.8),
  ('Cn1cc[nH]c1=S', 'PL', 'mg/dL', 149.2);

Proceed to the following item.
Sample O=[N+]([O-])c1ccc(O)c([N+](=O)[O-])c1 — what was its PL?
161.6
